Target: T1, LTα1β2 on the surface of PMA-treated II-23 cells (UniProt P01374 35-205, limits assumed)
T1 construct: whole, on cells; also called surface LT
T1 sequence 1: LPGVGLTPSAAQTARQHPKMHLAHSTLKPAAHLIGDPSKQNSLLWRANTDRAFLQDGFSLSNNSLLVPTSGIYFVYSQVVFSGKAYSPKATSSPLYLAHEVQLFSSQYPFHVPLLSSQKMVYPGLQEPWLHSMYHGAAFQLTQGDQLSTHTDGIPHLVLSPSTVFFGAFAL
T1 sequence 2: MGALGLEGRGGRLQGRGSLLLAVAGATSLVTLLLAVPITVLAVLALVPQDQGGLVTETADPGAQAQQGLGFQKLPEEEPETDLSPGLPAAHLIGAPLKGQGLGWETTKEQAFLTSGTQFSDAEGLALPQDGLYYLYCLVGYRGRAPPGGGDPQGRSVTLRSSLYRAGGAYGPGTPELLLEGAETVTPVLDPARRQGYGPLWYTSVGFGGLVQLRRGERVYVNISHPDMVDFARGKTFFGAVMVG
Assay: FACS, inhibition of biotin-LTβR-Ig (1 ug/ml) binding to PMA-treated II-23 cells
quantity: Maximum % Inhibition (%)
Just the number in %, nothing appended.

Entry LT105 (P2E9.7) (antibody, IgG1, V domains shown, The humanized versions were tested only for solubility; also called mAb LT105) VH: DVQLQESGPGLVKPSQSLSLTCSVTGYSITSGYYWNWIRQFPGNKLEGMGYISYDGSNNYNPSLKNRISITRDSSKNQFFLKLNSVTAEDSGTYYCARDAYSYGMDYWGQGTSVTVSS VL: DIVLTQSPASLAVSLGQRATISCRASESVDNYGISFMHWYQQKPGQPPKLLIYRASNLESGIPARFSGSGSRTDFTLTINPVETDDVATFYCQQSNKDPYTFGGGTKLEIK , Maximum % Inhibition reported as 97
